# assayed_target: human 5-HT transporter (SERT) (Homo sapiens)
# Sequence (P31645 whole entry): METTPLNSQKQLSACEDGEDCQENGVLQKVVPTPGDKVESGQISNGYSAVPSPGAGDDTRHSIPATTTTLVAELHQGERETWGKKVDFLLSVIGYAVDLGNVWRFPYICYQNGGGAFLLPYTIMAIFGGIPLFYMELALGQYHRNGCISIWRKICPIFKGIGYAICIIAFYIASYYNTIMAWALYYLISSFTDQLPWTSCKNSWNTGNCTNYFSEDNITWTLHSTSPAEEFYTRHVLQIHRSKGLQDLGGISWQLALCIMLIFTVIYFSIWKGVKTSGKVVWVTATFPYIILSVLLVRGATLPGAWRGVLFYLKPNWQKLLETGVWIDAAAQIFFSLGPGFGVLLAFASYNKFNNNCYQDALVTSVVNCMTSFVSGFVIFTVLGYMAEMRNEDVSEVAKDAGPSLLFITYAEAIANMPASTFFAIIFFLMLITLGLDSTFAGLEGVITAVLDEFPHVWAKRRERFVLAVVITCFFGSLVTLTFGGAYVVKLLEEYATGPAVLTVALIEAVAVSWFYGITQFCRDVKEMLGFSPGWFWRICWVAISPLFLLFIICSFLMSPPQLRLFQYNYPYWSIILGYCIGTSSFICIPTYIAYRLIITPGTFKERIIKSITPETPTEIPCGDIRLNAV
# method: [3H]5-HT uptake inhibition in HEK 293 cells overexpressing human SERT
# Assay type: cell-based
observed_property: pIC50
Give bare numbers, as −log10 of the molar value.

CNC(C)Cc1ccc2c(c1)OCO2 (stereo not shown) [MDMA, 3,4-Methylenedioxymethamphetmine, reference compound]    5.60
CC(N)Cc1ccc2c(c1)OCO2 (stereo not shown) [MDA, 3,4-methylenedioxyamphetamine, reference compound]    5.37
CNC(C)C(=O)c1ccc2c(c1)OCO2 (stereo not shown) [Methylone, 3,4-methylenedioxymethcathinone, reference compound]    4.74

We next turn to a different compound, shown below.
May I ask what pIC50 has been recorded for CC(N)Cc1ccc(O)c(O)c1 (stereo not shown) [HHA, 3,4-Dihydroxyamphetamine] ?
4.20
